Molecular target: HLA-A*02:01 (Homo sapiens, UniProt P04439, D140Y/D185E/D98H/E176V/E277Q/G131W/G231S/I119V/I121R/I166T/I218V/L300P/L318F/N151K/N90K/P208A/P217A/Q86G/Q94H/R138H/R169H/T345S)
Experiment: MHC binding assay (UV-ligand exchange, beta2m ELISA)
Conditions: binding to HLA-A*02:01, UV-ligand exchange
Source text: Candidate peptides for T cell based therapies according to the present invention were further tested for their MHC binding capacity (affinity). The individual peptide-MHC complexes were produced by UV-ligand exchange, where a UV-sensitive peptide is cleaved upon UV-irradiation, and exchanged with the peptide of interest as analyzed. Only peptide candidates that can effectively bind and stabilize the peptide-receptive MHC molecules prevent dissociation of the MHC complexes. […]
Assay Metric: Peptide exchange (MHC class I binding score, peptide exchange yield)

Answered examples (4):
Substance | Value Observed
305 (AMLAQQMQL; listed as Homo sapiens) [compound 305] | “+++” (≥50 = +++)
108 (YLAPENGYLM; listed as Homo sapiens) [compound 108] | “+++” (≥50 = +++)
189 (SLSHLVPAL; listed as Homo sapiens) [compound 189] | “+++” (≥50 = +++)
6 (TLITLPLLFL; listed as Homo sapiens) [compound 6] | “+++” (≥50 = +++)

Need Peptide exchange (MHC class I binding score, peptide exchange yield), item 106 (VLYELLQYI; listed as Homo sapiens) [compound 106]
“++++” (≥75% = ++++)

For the substance 230 (IMDDDSYGV; listed as Homo sapiens) [compound 230] , what Peptide exchange (MHC class I binding score, peptide exchange yield) is on record?
“++” (≥20% = ++)

Item under review: 239 (VLIDDTVLL; listed as Homo sapiens) [compound 239] . Reported Peptide exchange (MHC class I binding score, peptide exchange yield)?
“+++” (≥50 = +++)

May I ask what Peptide exchange (MHC class I binding score, peptide exchange yield) has been recorded for 137 (FIQQERFFL; listed as Homo sapiens) [compound 137] ?
“+++” (≥50 = +++)

Entry under review: 175 (VMESILLRL; listed as Homo sapiens) [compound 175] . Reported Peptide exchange (MHC class I binding score, peptide exchange yield)?
“+++” (≥50 = +++)

Would you mind telling me what Peptide exchange (MHC class I binding score, peptide exchange yield) value was observed for 257 (FLQEWEVYA; listed as Homo sapiens) [compound 257] ?
“++++” (≥75% = ++++)
